# Tested on: LG0567-F671-PDC KRAS tumor spheroid viability;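 also: drug exposure lasted seven days after spheroids formed for three days; 100% = DMSO vehicle control viability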
# experimental protocol: Anticancer human tumor LG0567-F671-PDC patient-derived lung adenocarcinoma cell line growth inhibition [KRAS2]
# experimental setup: second compound 3.16 µM; first compound 0.0316 µM; stronger effect = lower value; spheroids with HUVEC and MSC
endpoint label: viability, T/C (%)
One number for each entry, in %.

Example entries and their recorded answers appear below.
- compound: "COc1cc2nccc(Oc3ccc(NC(=O)C4(C(=O)Nc5ccc(F)cc5)CC4)cc3)c2cc1OC + CC1OCC2(CCN(c3cnc(Sc4ccnc(N)c4Cl)c(N)n3)CC2)C1N"
  measurement units: "%"
  viability, T/C: 19.6
- compound: "CC(=O)OC12COC1CC(O)C1(C)C(=O)C(O)C3=C(C)C(OC(=O)C(O)C(NC(=O)OC(C)(C)C)c4ccccc4)CC(O)(C(OC(=O)c4ccccc4)C21)C3(C)C (centres undefined) + C=CC(=O)N1CCN(c2nc(=O)n(-c3c(C)ccnc3C(C)C)c3nc(-c4c(O)cccc4F)c(F)cc23)C(C)C1"
  measurement units: "%"
  viability, T/C: 9.62
- compound: "Cn1nccc1Nc1nccc(-c2cc3c(s2)C(C)(C)N(CCN2CCOCC2)C3=O)n1 + CC1OCC2(CCN(c3cnc(Sc4ccnc(N)c4Cl)c(N)n3)CC2)C1N"
  measurement units: "%"
  viability, T/C: 18.6

Reported viability, T/C, compound CN(C)C/C=C/C(=O)Nc1cc2c(Nc3ccc(F)c(Cl)c3)ncnc2cc1O[C@H]1CCOC1 + C=CC(=O)N1CCN(c2nc(OCC3CCCN3C)nc3c2CCN(c2cccc4cccc(C)c24)C3)CC1CC#N : ____
10.2
